# system_tested: Lysophosphatidic acid receptor 3 (Homo sapiens)
# Sequence (Q9UBY5 whole entry): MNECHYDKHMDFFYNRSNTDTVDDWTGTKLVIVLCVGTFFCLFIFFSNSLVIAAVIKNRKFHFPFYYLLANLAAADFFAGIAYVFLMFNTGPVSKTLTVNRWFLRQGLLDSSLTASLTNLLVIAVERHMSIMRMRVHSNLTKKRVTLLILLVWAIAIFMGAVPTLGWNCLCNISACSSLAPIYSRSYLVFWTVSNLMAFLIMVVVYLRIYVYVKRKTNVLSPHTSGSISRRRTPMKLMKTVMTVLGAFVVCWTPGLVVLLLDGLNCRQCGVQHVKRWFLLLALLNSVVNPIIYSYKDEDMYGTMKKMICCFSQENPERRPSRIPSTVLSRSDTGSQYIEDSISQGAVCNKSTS
# experiment_description: Antagonist activity at human LPA3 receptor
# Assay type: cell-based, CHO
pEC50: −log10 of the molar value.
Attribute: pEC50

Some solved entries appear below for comparison.
1. CC(OC(=O)Nc1c(-c2ccc(-c3ccc(C4(C(=O)O)CC4)cc3)cc2)oc2cnccc12)c1ccccc1 (stereo not drawn) = > 7.30
2. CC(OC(=O)Nc1c(-c2ccc(-c3ccc(C4(C(=O)O)CC4)cc3)cc2)oc2cnccc12)c1ccccc1Cl (stereo not drawn) = > 7.30

Next, consider the following compound.
Q: Missing value: pEC50, Lysophosphatidic acid receptor 3 (Homo sapiens), entry Cc1noc(-c2ccc(-c3ccc(CC(=O)O)c4c3CCC4)cc2)c1NC(=O)OC(C)c1ccccc1Cl (stereo not drawn) . Fill in?
Result: > 7.30

* * *

# system_tested: Lysophosphatidic acid receptor 1 (Homo sapiens)
Examples of compounds with documented pIC50 follow.
Expect pIC50 as a plain number equal to -log10 of the molar concentration.

Some compounds with recorded pIC50:
1) CCC1CC1(NC(=O)c1ccc(OC)c(OCCc2cccc(C)c2)c1)C(=O)O (centres undefined) = 7.00
2) COc1ccc(C(=O)NC2(C(=O)O)CCC(C)C2)cc1OCCc1cccc(C)c1 (centres undefined) = 7.00

Q: State its pIC50 on Lysophosphatidic acid receptor 1 (Homo sapiens): `COc1cc(C(=O)N(CCCc2ccccc2)Cc2ccc(Oc3ccccc3C(=O)O)cc2)cc(OC)c1OC`
Result: 6.96

Q: For Lysophosphatidic acid receptor 1 (Homo sapiens), provide pIC50 of `CSc1ccc(C(=O)NC2(C(=O)O)Cc3ccccc3C2)cc1OCCc1cccc(C)c1` please.
Result: 7.00

* * *

# system_tested: Lysophosphatidic acid receptor 5 (Homo sapiens)
# Sequence (Q9H1C0 whole entry): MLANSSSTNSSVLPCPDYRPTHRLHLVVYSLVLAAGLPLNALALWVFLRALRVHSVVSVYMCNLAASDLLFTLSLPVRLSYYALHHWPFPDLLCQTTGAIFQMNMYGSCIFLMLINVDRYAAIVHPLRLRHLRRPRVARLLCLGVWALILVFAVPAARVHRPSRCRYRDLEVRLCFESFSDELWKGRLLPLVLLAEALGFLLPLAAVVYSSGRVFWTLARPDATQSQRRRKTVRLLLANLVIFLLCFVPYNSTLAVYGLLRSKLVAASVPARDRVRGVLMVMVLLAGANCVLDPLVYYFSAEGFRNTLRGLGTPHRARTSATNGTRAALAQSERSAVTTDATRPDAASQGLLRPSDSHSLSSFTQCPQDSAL
# experiment_description: Antagonist activity at human LPA5 receptor by FLIPR analysis
readout_name: pIC50
FYI, pIC50 means -log10 of a concentration in mol per litre.

Here are 2 molecules together with their reported answers.
1) Cc1c(COC(C)(C)C(=O)NCc2ccc(C(=O)O)cc2)nn(-c2ccc(Cl)cc2Cl)c1-c1ccc(Cl)cc1 = 5.89
2) Cc1c(COC(C)(C)C(=O)NCc2ccc(C(=O)O)cc2)nn(-c2ccc(Cl)cc2Cl)c1-c1ccc(C(F)(F)F)cc1 = 7.52

Q: Fill blank: measured pIC50 of the molecule `Cc1c(COC(C)(C)C(=O)NCc2ccc(C(=O)O)cc2)nn(-c2ccccc2Cl)c1-c1ccc(C(F)(F)F)cc1` is ____.
Result: 5.89

* * *

# system_tested: UniProt:Q9H1C0
# experiment_description: Antagonist activity at human LPA5 receptor expressed in CHO cells assessed as inhibition of LPA stimulated calcium release incubated for 20 mins followed by […] and measured for 90 seconds
# Format: cell-based
readout_name: pIC50
Worth noting: pIC50 values are minus log10 of concentrations stated in mol/L.

Q: Form field: reported pIC50 of `Cc1c(COC(C)(C)C(=O)NCc2ccc(C(=O)O)cc2)nn(-c2ccc(Cl)cc2Cl)c1-c1ccc(Cl)cc1`
Result: 5.54

* * *

# system_tested: Lysophosphatidic acid receptor 1 (Homo sapiens, UniProt Q92633)
# Sequence (Q92633 whole entry): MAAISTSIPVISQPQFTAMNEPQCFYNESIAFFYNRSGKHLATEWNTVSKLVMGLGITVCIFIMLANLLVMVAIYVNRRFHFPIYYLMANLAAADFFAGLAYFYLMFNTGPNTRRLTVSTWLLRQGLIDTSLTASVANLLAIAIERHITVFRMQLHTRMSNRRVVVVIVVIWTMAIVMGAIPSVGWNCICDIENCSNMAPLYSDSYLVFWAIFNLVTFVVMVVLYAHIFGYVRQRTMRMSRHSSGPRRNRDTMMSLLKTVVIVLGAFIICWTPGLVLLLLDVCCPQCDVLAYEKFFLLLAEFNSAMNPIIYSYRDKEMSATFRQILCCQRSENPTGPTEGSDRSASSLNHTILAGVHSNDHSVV
# experiment_description: Antagonist activity at human LPA1 receptor expressed in CHO cells
pEC50: −log10 of the molar value.
# reported pEC50; entries follow

Q: Find pEC50 (Lysophosphatidic acid receptor 1 (Homo sapiens, UniProt Q92633)) for the entry Cc1noc(-c2ccc(-c3ccc(CC(=O)O)c4c3CCC4)cc2)c1NC(=O)OC(C)c1ccccc1Cl (stereo not drawn)
Result: > 7.30

Q: Which measured pEC50 belongs to CC(OC(=O)Nc1c(-c2ccc(-c3ccc(C4(C(=O)O)CC4)cc3)cc2)oc2cnccc12)c1ccccc1 (stereo not drawn) , tested on Lysophosphatidic acid receptor 1 (Homo sapiens, UniProt Q92633)?
Result: > 7.30

Q: Which measured pEC50 belongs to CC(OC(=O)Nc1c(-c2ccc(-c3ccc(C4(C(=O)O)CC4)cc3)cc2)oc2cnccc12)c1ccccc1Cl (stereo not drawn) , tested on Lysophosphatidic acid receptor 1 (Homo sapiens, UniProt Q92633)?
Result: > 7.30
